Experiment: Ratio of drug level in semen to blood in healthy human at […] administered twice daily measured 5 hrs post dosing by HPLC
Type: ADME, organism-based
Settings: male

{"columns": ["molecule", "Kp at 5 h"],
 "data": [
  ["Cc1nnc(C(=O)NC(C)(C)c2nc(C(=O)NCc3ccc(F)cc3)c(O)c(=O)n2C)o1 [RALTEGRAVIR]", 1.42]
]}

###

Assay: Ratio of drug level in semen to blood in healthy human at […] administered twice daily measured on day 5 by HPLC
Type: ADME, organism-based
Settings: male

{"columns": ["molecule", "Kp at 5 day"],
 "data": [
  ["Cc1nnc(C(=O)NC(C)(C)c2nc(C(=O)NCc3ccc(F)cc3)c(O)c(=O)n2C)o1 [RALTEGRAVIR]", 3.78]
]}

###

Test: Drug level in blood of healthy human at […] administered twice daily measured on day 5 by HPLC
Format: ADME, organism-based
Conditions: read-out: Drug uptake

{"columns": ["line_notation", "concentration at 5 day (ng/mL)"],
 "data": [
  ["Cc1nnc(C(=O)NC(C)(C)c2nc(C(=O)NCc3ccc(F)cc3)c(O)c(=O)n2C)o1", 51]
]}
